Data credit: ChEMBL document CHEMBL2069243

# test_method_notes: Cytotoxicity against human hepatoma cells after 3 days by MTS assay
# Format: cell-based
Would you kindly list CC50 at 72 h for each of these compounds?
Give just the numeric value; µM need not be written.

Exam item: Please look at this compound and report its CC50 at 72 h: COC(=O)CCc1nccc2sc(-c3c(C)nc(N[C@H](C)c4ccc(OC(F)(F)F)cc4)nc3N[C@@H]3C[C@H](CO)[C@@H](O)[C@H]3O)nc12
Marked response: 14

Exam item: Identify measured CC50 at 72 h corresponding to Cc1nc(NC2CC2)nc(N[C@@H]2C[C@H](CO)[C@@H](O)[C@H]2O)c1-c1nc2cnccc2s1
Marked response: 19

Exam item: Return reported CC50 at 72 h. Input compound: Cc1nc(NCc2ccccc2)nc(N[C@@H]2C[C@H](CO)[C@@H](O)[C@H]2O)c1-c1nc2cnccc2s1
Marked response: 14

Exam item: Specify CC50 at 72 h for Cc1nc(N)nc(N[C@@H]2C[C@H](CO)[C@@H](O)[C@H]2O)c1-c1nc2cnccc2s1 and stop.
Marked response: 18

Exam item: Quote CC50 at 72 h reported for CCc1nc(C)cc2sc(-c3c(C)nc(N[C@H](C)c4ccc(OC(F)(F)F)cc4)nc3N[C@@H]3C[C@H](CO)[C@@H](O)[C@H]3O)nc12 please.
Marked response: 24

* * *

# test_method_notes: Cytotoxicity against human hepatoma cells assessed as decrease in GADPH RNA level after 3 days by Rt-PCR analysis
# Assay type: cell-based
test_readout: CC50 at 72 h (µM)
Response body: numeric value in µM, unit text excluded.

Exam item: Recall and state the measured CC50 at 72 h for Cc1nc(N[C@H](C)c2ccc(OC(F)(F)F)cc2)nc(N[C@@H]2C[C@H](CO)[C@@H](O)[C@H]2O)c1-c1nc2c(C3CC3)nccc2s1.Cl .
Marked response: 25

Exam item: Give a short answer stating reported CC50 at 72 h for CCc1nc(C)cc2sc(-c3c(C)nc(N[C@H](C)c4ccc(OC(F)(F)F)cc4)nc3N[C@@H]3C[C@H](CO)[C@@H](O)[C@H]3O)nc12 .
Marked response: 23

Exam item: Identify measured CC50 at 72 h corresponding to Cc1nc(NCC2CCN(C)CC2)nc(N[C@@H]2C[C@H](CO)[C@@H](O)[C@H]2O)c1-c1nc2cnccc2s1
Marked response: 25

Exam item: Entry Cc1nc(NCc2ccccc2)nc(N[C@@H]2C[C@H](CO)[C@@H](O)[C@H]2O)c1-c1nc2cnccc2s1 needs its CC50 at 72 h filled in; supply it.
Marked response: 25

Exam item: Give the measured CC50 at 72 h for Cc1ccc(C2(Nc3nc(C)c(-c4nc5cnccc5s4)c(N[C@@H]4C[C@H](CO)[C@@H](O)[C@H]4O)n3)CC2)cc1
Marked response: 25

Exam item: Identify measured CC50 at 72 h corresponding to COc1cc(CCNc2nc(C)c(-c3nc4cnccc4s3)c(N[C@@H]3C[C@H](CO)[C@@H](O)[C@H]3O)n2)cc(OC)c1
Marked response: 25

Exam item: Tell me its CC50 at 72 h given Cc1nc(N[C@H](C)c2ccc(OC(F)(F)F)cc2)nc(N[C@@H]2C[C@H](CO)[C@@H](O)[C@H]2O)c1-c1nc2c(C(C)C)nccc2s1 as the entry.
Marked response: 11

Exam item: Provide measured CC50 at 72 h value, entry: Cc1nc(NCc2c(F)cccc2F)nc(N[C@@H]2C[C@H](CO)[C@@H](O)[C@H]2O)c1-c1nc2cnccc2s1
Marked response: 4

Exam item: Using known records, supply CC50 at 72 h for Cc1nc(Nc2ccccc2)nc(N[C@@H]2C[C@H](CO)[C@@H](O)[C@H]2O)c1-c1nc2cnccc2s1
Marked response: 25

Exam item: Give reported CC50 at 72 h value for Cc1nc(N[C@H](C)c2ccc(OC(F)(F)F)cc2)nc(N[C@@H]2C[C@H](CO)[C@@H](O)[C@H]2O)c1-c1nc2c(C)nccc2s1.Cl
Marked response: 25

Exam item: Find the measured CC50 at 72 h of Cc1nc(N)nc(N[C@@H]2C[C@H](CO)[C@@H](O)[C@H]2O)c1-c1nc2cnccc2s1 and report it.
Marked response: 25

* * *

# test_method_notes: Clearance in rat at 10 mg/kg, po
# Type: ADME, organism-based
# Set-up: dose 10 mg/kg, route oral
# condition_notes: in vivo
For each of the molecules below, state its CL/F.
Enter your answer as a number in mL/min/kg; do not include the unit.

Exam item: Determine its reported CL/F: Cc1nc(N[C@H](C)c2ccc(OC(F)(F)F)cc2)nc(N[C@@H]2C[C@H](CO)[C@@H](O)[C@H]2O)c1-c1nc2c(C3CC3)nccc2s1.Cl
Marked response: 11

Exam item: Fill in CL/F for record Cc1nc(N[C@H](C)c2ccc(OC(F)(F)F)cc2)nc(N[C@@H]2C[C@H](CO)[C@@H](O)[C@H]2O)c1-c1nc2c(C)nccc2s1.Cl
Marked response: 40

* * *

# test_method_notes: AUC (0 to 6 hrs) in rat at 10 mg/kg, po
# Format: ADME, organism-based
# Set-up: time < 6 hr, dose 10 mg/kg, route oral
# condition_notes: plasma
test_readout: AUC(0-t) at 6 h (µM·h)
Give just the numeric value; µM·h need not be written.

Exam item: Find the measured AUC(0-t) at 6 h of Cc1nc(N[C@H](C)c2ccc(OC(F)(F)F)cc2)nc(N[C@@H]2C[C@H](CO)[C@@H](O)[C@H]2O)c1-c1nc2c(C(C)C)nccc2s1 and report it.
Marked response: 3.2

Exam item: Please report AUC(0-t) at 6 h for the following compound: CNc1nc(C)c(-c2nc3cnccc3s2)c(N[C@@H]2C[C@H](CO)[C@@H](O)[C@H]2O)n1
Marked response: 0.3

Exam item: For CCc1nccc2sc(-c3c(C)nc(N[C@H](C)c4ccc(OC(F)(F)F)cc4)nc3N[C@@H]3C[C@H](CO)[C@@H](O)[C@H]3O)nc12 , write its AUC(0-t) at 6 h.
Marked response: 5.8

Exam item: State, in one line, measured AUC(0-t) at 6 h of COc1cc(CCNc2nc(C)c(-c3nc4cnccc4s3)c(N[C@@H]3C[C@H](CO)[C@@H](O)[C@H]3O)n2)cc(OC)c1
Marked response: 0.1

Exam item: Determine its reported AUC(0-t) at 6 h: Cc1nc(N(C)C)nc(N[C@@H]2C[C@H](CO)[C@@H](O)[C@H]2O)c1-c1nc2cnccc2s1
Marked response: 7.5

Exam item: Look up and state reported AUC(0-t) at 6 h for Cc1nc(N(C)Cc2ccccc2)nc(N[C@@H]2C[C@H](CO)[C@@H](O)[C@H]2O)c1-c1nc2cnccc2s1
Marked response: 0.2

Exam item: Respond only with AUC(0-t) at 6 h recorded for Cc1nc(N[C@H](C)c2ccccc2)nc(N[C@@H]2C[C@H](CO)[C@@H](O)[C@H]2O)c1-c1nc2cnccc2s1
Marked response: 0.2

* * *

# test_method_notes: Cytotoxicity against human hepatoma cells assessed as decrease in GADPH RNA level after 3 days by Rt-PCR analysis
# Type: cell-based
test_readout: CC50 at 72 h (µM)
// note: answer is a bare numeric in µM

Exam item: Read off the recorded CC50 at 72 h for Cc1nc(N[C@H](C)c2ccc(OC(F)(F)F)cc2)nc(N[C@@H]2C[C@H](CO)[C@@H](O)[C@H]2O)c1-c1nc2cnccc2s1
Marked response: 25

Exam item: Please report CC50 at 72 h for the following compound: COC(=O)CCc1nccc2sc(-c3c(C)nc(N[C@H](C)c4ccc(OC(F)(F)F)cc4)nc3N[C@@H]3C[C@H](CO)[C@@H](O)[C@H]3O)nc12
Marked response: 23

Exam item: Give me measured CC50 at 72 h, please, for this compound: CCOCCNc1nc(C)c(-c2nc3cnccc3s2)c(N[C@@H]2C[C@H](CO)[C@@H](O)[C@H]2O)n1
Marked response: 25

Exam item: Please supply the value of reported CC50 at 72 h for the item Cc1ccc([C@@H](C)Nc2nc(C)c(-c3nc4cnccc4s3)c(N[C@@H]3C[C@H](CO)[C@@H](O)[C@H]3O)n2)cc1
Marked response: 25

Exam item: Using the record for Cc1nc(NC2CC2)nc(N[C@@H]2C[C@H](CO)[C@@H](O)[C@H]2O)c1-c1nc2cnccc2s1 , state its measured CC50 at 72 h.
Marked response: 25

Exam item: Read the entry CCc1nccc2sc(-c3c(C)nc(N[C@H](C)c4ccc(OC(F)(F)F)cc4)nc3N[C@@H]3C[C@H](CO)[C@@H](O)[C@H]3O)nc12 and write its reported CC50 at 72 h.
Marked response: 7

Exam item: Supply measured CC50 at 72 h of Cc1cc2sc(-c3c(C)nc(N[C@H](C)c4ccc(OC(F)(F)F)cc4)nc3N[C@@H]3C[C@H](CO)[C@@H](O)[C@H]3O)nc2c(C)n1 in your reply.
Marked response: 20
